Attribute: KLS-positive rate
# Tested on: mouse long-term hematopoietic stem cells
# protocolSummary: Reproducibility and concentration dependence test: 1-week culture of sorted Hoxb5-tri-mCherry mouse long-term hematopoietic stem cells, flow cytometry
# Type: cell-based
# testConditions: Table 4; compound 0.3 μM; day 7 of culture; n=2
Give the value in % but do not write % after it.

Past entries and their recorded results:
# molecule, resultNumber
records = [
    ("C[C@H]1[C@@H](O)O[C@@H]2O[C@@]3(C)CC[C@H]4[C@H](C)CC[C@@H]1[C@@]24OO3 [Example 1-29, artenimol, reference compound]", 13.7),
    ("C[C@H]1[C@@H](C(N)=O)O[C@@H]2O[C@@]3(C)CC[C@H]4[C@H](C)CC[C@@H]1[C@@]24OO3 [Example 1-15]", 13.0),
]

May I ask what KLS-positive rate has been recorded for CO[C@H]1O[C@@H]2O[C@@]3(C)CC[C@H]4[C@H](C)CC[C@@H]([C@H]1C)[C@@]24OO3 [Example 1-30, artemether, reference compound] ?
38.4

----------
# Tested on: mouse long-term hematopoietic stem cells
# protocolSummary: Reproducibility and concentration dependence test: 1-week culture of sorted Hoxb5-tri-mCherry mouse long-term hematopoietic stem cells, flow cytometry
# Format: cell-based
# testConditions: Table 4; compound 10 μM; day 7 of culture; n=2
# Description: Mice with insertion of a nucleic acid sequence containing three copies of a gene encoding the fluorescent protein mCherry to the C terminus of the mouse endogenous HoxB5 gene (Hoxb5-tri-mCherry) were used (triple-mCherry Hoxb5 knock-in mice; Non Patent Literature 1). […]
mCherry-positive rate values for the molecules below.
Report the figure in % without appending any unit label.

# molecule, mCherry-positive rate [%]
records = [
    ("C[C@H]1[C@@H](CN)O[C@@H]2O[C@@]3(C)CC[C@H]4[C@H](C)CC[C@@H]1[C@@]24OO3 [Example 1-17]", 100.0),
    ("CS[C@@H]1O[C@@H]2O[C@@]3(C)CC[C@H]4[C@H](C)CC[C@@H]([C@H]1C)[C@@]24OO3 [Example 1-3]", 100.0),
    ("C[C@H]1[C@@H](O)O[C@@H]2O[C@@]3(C)CC[C@H]4[C@H](C)CC[C@@H]1[C@@]24OO3 [Example 1-29, artenimol, reference compound]", 50.0),
    ("C[C@H]1[C@@H](C)O[C@@H]2O[C@@]3(C)CC[C@H]4[C@H](C)CC[C@@H]1[C@@]24OO3 [Example 1-6]", 98.4),
    ("C[C@H]1[C@H](N2CCOCC2)O[C@@H]2O[C@@]3(C)CC[C@H]4[C@H](C)CC[C@@H]1[C@@]24OO3 [Example 1-13]", 0.0),
]

# mCherry-positive rate lookup, item CO[C@H]1O[C@@H]2O[C@@]3(C)CC[C@H]4[C@H](C)CC[C@@H]([C@H]1C)[C@@]24OO3 [Example 1-30, artemether, reference compound]
98.2

What mCherry-positive rate value was documented for this molecule, CC(=O)OCCOC1O[C@@H]2O[C@@]3(C)CC[C@H]4[C@H](C)CC[C@@H]([C@H]1C)[C@@]24OO3 (stereo in doubt) [Example 1-26] ?
100.0

Quick check: mCherry-positive rate of C[C@H]1[C@H](OC(=O)CCC(=O)O)O[C@@H]2O[C@@]3(C)CC[C@H]4[C@H](C)CC[C@@H]1[C@@]24OO3 [Example 1-32, artesunate, reference compound] ?
25.0

I have this molecule here, C[C@H]1[C@H](N(C)C)O[C@@H]2O[C@@]3(C)CC[C@H]4[C@H](C)CC[C@@H]1[C@@]24OO3 [Example 1-12] , and I need its recorded mCherry-positive rate.
12.1

Which mCherry-positive rate reading was recorded for the molecule CO[C@@H]1O[C@@H]2O[C@@]3(C)CC[C@H]4[C@H](C)CC[C@@H]([C@H]1C)[C@@]24OO3 [Example 1-35] ?
99.6

Name the recorded mCherry-positive rate for CC(C)O[C@H]1O[C@@H]2O[C@@]3(C)CC[C@H]4[C@H](C)CC[C@@H]([C@H]1C)[C@@]24OO3 [Example 1-19] .
50.0
